test system: NCI-H358 (K-Ras G12C); assay: CellTiter-Glo cell viability assay, NCI-H358; format: cell-based, human; conditions: Homo sapiens, NCI-H358, 120 h, NCI-H358, 5-day treatment; class symbols; read-out: Additional H358 Cell Viability assay data (K-Ras G12C, IC50)
pIC50: −log10 of the molar value.
TEST_READOUT: pIC50

Consider the reported pIC50 for these compounds:
- COMPOUND: "C=CC(=O)N1CC[C@H](C(=O)N(C)[C@H](C(=O)N[C@H]2Cc3nc(cs3)-c3ccc4c(c3)c(c(-c3cc5c(nc3[C@H](C)OC)CCN(C)C5)n4CC)CC(C)(C)COC(=O)[C@@H]3CCCN(N3)C2=O)C(C)C)C1 (atropisomer, axis not shown) [Example A472]"
  REPORTED_RESULT: "> 8.00"
- COMPOUND: "C=CC(=O)N1CCOC2(CCN(C(=O)N(C)[C@H](C(=O)N[C@H]3Cc4cccc(n4)-c4ccc5c(c4)c(c(-c4cccnc4[C@H](C)OC)n5CC(F)(F)F)CC(C)(C)COC(=O)[C@@H]4CCCN(N4)C3=O)C(C)C)CC2)C1 (atropisomer, axis not shown) [Example A607]"
  REPORTED_RESULT: "7.00 to 8.00"
- COMPOUND: "C=CC(=O)N1CC[C@H](C(=O)N(C)[C@H](C(=O)N[C@H]2Cc3cccc(c3)-c3ccc4c(c3)c(c(-c3cnn(C5CCN(C)CC5)c3[C@H](C)OC)n4CC)CC(C)(C)COC(=O)[C@@H]3CCCN(N3)C2=O)C(C)C)C1 [Example A482]"
  REPORTED_RESULT: "6.00 to 7.00"
- COMPOUND: "C=CC(=O)N1CC[C@H](C(=O)N(C)[C@H](C(=O)N[C@H]2Cc3cc(cc(C(F)F)c3)-c3ccc4c(c3)c(c(-c3cccnc3[C@H](C)OC)n4CC)CC(C)(C)COC(=O)[C@@H]3CCCN(N3)C2=O)C(C)C)C1 (atropisomer, axis not shown) [Example A341]"
  REPORTED_RESULT: "7.00 to 8.00"
- COMPOUND: "CCn1c(-c2ccccc2CCOC)c2c3cc(ccc31)-c1cc(O)cc(c1)C[C@H](NC(=O)[C@H](C(C)C)N(C)C(=O)c1ccc(NC(=O)/C=C/CN(C)C)cn1)C(=O)N1CCC[C@H](N1)C(=O)OCC(C)(C)C2 [Example A224]"
  REPORTED_RESULT: "< 6.00"
- COMPOUND: "C=CC(=O)N1CCO[C@H]2CCN(C(=O)N(C)[C@H](C(=O)N[C@H]3Cc4nc(cs4)-c4ccc5c(c4)c(c(-c4cccnc4[C@H](C)OC)n5CC)CC(C)(C)COC(=O)[C@@H]4CCCN(N4)C3=O)C(C)C)C[C@H]21 (atropisomer, axis not shown) [Example A580]"
  REPORTED_RESULT: "7.00 to 8.00"
- COMPOUND: "CO[C@@H](C)c1ncccc1-c1c2c3cc(ccc3n1CC(F)(F)F)-c1csc(n1)C[C@H](NC(=O)CCOC1CN(C(=O)C#CC(C)(C)N(C)C)C1)C(=O)N1CCC[C@H](N1)C(=O)OCC(C)(C)C2 (atropisomer, axis not shown) [Example A380]"
  REPORTED_RESULT: "> 8.00"

Request: Answer with the recorded pIC50 for the compound listed here: C=CC(=O)N1CC[C@]2(C1)OCN([C@H](C(=O)N[C@H]1Cc3cccc(c3)-c3ccc4c(c3)c(c(-c3cccnc3[C@H](C)OC)n4CC)CC(C)(C)COC(=O)[C@@H]3CCCN(N3)C1=O)C(C)C)C2=O (atropisomer, axis not shown) [Example A371]
Response: > 8.00
